Where do these numbers come from? They come from PubChem BioAssay (NCATS).

- Assay info: Stat Signaling Pathway (AID 446);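 also: ME-180 cervical cancer cells given 40 pM IL-6 alongside compound; SIE-controlled beta-lactamase reporter measured as 460/530 nm FRET emission ratio; % is scaled to controls: 0 for no effect and ±100 for the full control effect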
- Applied conditions: ME-180 SIE beta-lactamase reporter, IL-6 stimulated, 5 h; at 17.2 µM (top of the series) unless noted
Inconclusive results are not listed. Active and inactive are the calls of the source. Calls follow the shape of the dose curve; as a rule, active = well fitted curve in either direction with a large enough effect (not every such curve was filed as active); inconclusive = small, poorly fitted or top-dose-only effect, or another doubt; inactive = flat fitted curve, though single readings scatter.
// classify into 1 (active), 0 (inactive)

Compound | Category label
CCCOc1ccc(/C(O)=C2/C(=O)C(=O)N(CCN(C)C)C2c2ccncc2)cc1 (stereo unspecified) | 0

Input: Called result for "Cc1cc(C(F)(F)F)c(C#N)c(SCC(=O)NC2CC2)n1"
Output: 0

* * *

- Assay info: AP1 Signaling Pathway (AID 357);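 also: ME-180 reporter cells stimulated with EGF at its EC50 level; % is scaled to controls: 0 for no effect and ±100 for the full control effect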
- Applied conditions: ME-180 (cervical carcinoma) AP-1-bla reporter, EGF-induced, beta-lactamase ratio, 5 h; at 17.2 µM (top of the series) unless noted
Results filed as inconclusive are left out. Calls of active or inactive are those of the source. The call rests on the fitted dose curve; in most records, active means well fitted curve in either direction with a large enough effect (not every such curve was filed as active); inconclusive means small, poorly fitted or top-dose-only effect, or another doubt; inactive means flat fitted curve, though single readings scatter.
Quick reference for activity change, negative = inhibition among some molecules

Past entries and their recorded results:
Molecule | activity change, negative = inhibition
O=C1CCC(=O)N1CN(C(=O)c1ccco1)c1ccc(Cl)c(Cl)c1 | -6.31% (inactive)
CCC(NC(=O)Nc1nccs1)(C(F)(F)F)C(F)(F)F | -2.44% (inactive)
C[N+](C)(C)CCN(Cc1cccs1)c1ccccn1 | -6.68% [at 7.69 µM] (inactive)
COc1ccccc1C1/C(=C(/O)c2cnn(-c3ccccc3)c2C)C(=O)C(=O)N1CCN(C)C (stereo unspecified) | -7.05% (inactive)

Input: Give its activity change, negative = inhibition value. Item: "Cn1ncc(N=Cc2ccccc2O)c1C(=O)N1CCOCC1"
Output: 2.72% (inactive)

Input: Now the same for CC(NC(=O)OCc1ccccc1)C(=O)OCN1C(=O)c2ccccc2C1=O (stereo unspecified)
Output: -1.4% (inactive)

Input: Now the same for "COc1cccc(C(=O)c2sc(NC(C)C)nc2N)c1"
Output: -116% (active)

Input: Now the same for CC1CN(C2CCN(S(=O)(=O)c3ccc4ccccc4c3)CC2)CC(C)O1 (stereo unspecified)
Output: -3.99% (inactive)

Input: Now the same for "Cc1ccc2[nH]c3c(c2c1)CN(C(=O)CN1CCN(c2ccccn2)CC1)CC3"
Output: -13.5% (inactive)

Input: Now the same for CCOC(=O)C1(C(=O)OCC)C(c2ccccc2)CC(O)N1C(C)=O (stereo unspecified)
Output: 5.72% (inactive)

Input: Now the same for CC12CCC(=O)N1c1c(sc3nc(N4CCOCC4)c4c(c13)CCCC4)C(=O)N2 (stereo unspecified)
Output: -25.1% (inactive)
